System: anti-β1-ECII antibodies
experiment-summary: ELISA-competition assay: peptide preincubated with sera/IgG of immunized antibody-positive rats, linear 25AA Cys/Cys-peptide as antigen
Assay type: binding, rat
assay-conditions: 8-fold molar excess of peptide; n=6 sera (FIG. 11)
Positions of bridges follow the written chain, without caps; N, C: chain ends. No end group written: not given here.
The following substances are shown together with reported decrease in circulating free anti-beta1-ECII antibodies values.
Write the answer as a number in %, unit excluded.

# example entries with known answers
substance: 18AA Cys/Cys cyclopeptides: (non-mutated) 3 Cys-containing β1-ECII-homologous 18AA cyclopeptide (cyclo(ADEARRCYNDPKCCDFVQ); not fully specified (bridges); cysteine pairing not given here) [reference compound]
number: 46

substance: Cyclo-Ala-Arg-Ala-Glu-Ser-Asp-Glu-Ala-Arg-Arg-Cys-Tyr-Asn-Asp-Pro-Lys-Cys-Ser-Asp-Phe-Val-Thr-Asn-Arg-Gln (cyclo(ARAESDEARRCYNDPKCSDFVTNRQ); disulfide 11-17 (inferred)) [25AA Cys/Ser mutant cyclopeptides]
number: 30

substance: ARAESDEARRCYNDPKCCDFVTNRQ (cysteine pairing not given here) [linear 25AA Cys/Cys peptides, reference compound]
number: 24

For record Ala-Asp-Glu-Ala-Arg-Arg-Cys-Tyr-Asn-Asp-Pro-Lys-Cys-Ser-Asp-Phe-Val-Gln (cyclo(ADEARRCYNDPKCSDFVQ); disulfide 7-13 (inferred)) [linear 18AA Cys/Ser peptides, reference compound] the listed decrease in circulating free anti-beta1-ECII antibodies is 24
